Assay: in vivo
Conditions: male, guinea pig, iv, 10 mg/kg, T½ dist.
Measurement kind: half-life (min)

• C[C@@H](CN1CCCc2ccccc2C1)NC(=O)/C=N/O [LLNL-02] = 15

----------
Experiment: in vivo
Settings: male, guinea pig, iv, 10 mg/kg, Vd (area)
Measurement kind: Vd (L/kg)

* C[C@@H](CN1CCCc2ccccc2C1)NC(=O)/C=N/O [LLNL-02] | 6.32

----------
Test: in vivo
Details: male, guinea pig, iv, 20 mg/kg, mean apparent distribution half-life (t1/2α)
Measurement kind: half-life

* C[C@@H](CN1CCCc2ccccc2C1)NC(=O)/C=N/O | 15 to 24 min

----------
Test: in vivo
Settings: male, guinea pig, iv, 20 mg/kg, terminal half-life (t1/2 β)
Measurement kind: half-life

• C[C@@H](CN1CCCc2ccccc2C1)NC(=O)/C=N/O = 606 to 1130 min

----------
Assay: in vivo
Details: male, guinea pig, iv, 10 mg/kg, AUC0-t
Measurement kind: AUC0-t (ng·h/mL)

* C[C@@H](CN1CCCc2ccccc2C1)NC(=O)/C=N/O | 28400

----------
Biological target: CYP3A4 (Homo sapiens, UniProt P08684)
Sequence (P08684 whole entry): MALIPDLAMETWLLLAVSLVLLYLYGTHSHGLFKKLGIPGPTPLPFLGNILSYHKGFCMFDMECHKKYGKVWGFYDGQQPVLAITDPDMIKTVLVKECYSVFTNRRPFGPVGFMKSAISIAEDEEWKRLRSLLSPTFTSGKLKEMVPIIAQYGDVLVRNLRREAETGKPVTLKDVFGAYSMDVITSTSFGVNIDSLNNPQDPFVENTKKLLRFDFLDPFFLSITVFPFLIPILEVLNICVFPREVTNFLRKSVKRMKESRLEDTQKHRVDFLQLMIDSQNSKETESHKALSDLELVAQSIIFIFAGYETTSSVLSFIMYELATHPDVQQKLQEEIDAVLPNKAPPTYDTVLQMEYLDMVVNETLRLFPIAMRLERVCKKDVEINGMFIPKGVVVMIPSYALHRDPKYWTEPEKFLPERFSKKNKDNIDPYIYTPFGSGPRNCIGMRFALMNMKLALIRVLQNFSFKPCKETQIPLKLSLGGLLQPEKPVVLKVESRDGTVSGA
pIC50: −log10 of the molar value.
Measurement kind: pIC50

• C[C@@H](CN1CCCc2ccccc2C1)NC(=O)/C=N/O = < 5.00

----------
Test: Microsomal stability assay
Conditions: microsomes
Measurement kind: microsomal CLint

- C[C@@H](CN1CCCc2ccccc2C1)NC(=O)/C=N/O: < 23 µL/min/mg

----------
Test: in vivo
Details: male, guinea pig, iv, 10 mg/kg
Measurement kind: AUC(0-inf) (ng·h/mL)

* C[C@@H](CN1CCCc2ccccc2C1)NC(=O)/C=N/O | 73400

----------
Assay: in vivo
Settings: male, guinea pig, iv, 10 mg/kg, T½ elim.
Measurement kind: half-life

- C[C@@H](CN1CCCc2ccccc2C1)NC(=O)/C=N/O [LLNL-02]: 10.1 h

----------
Target: CYP2C19 (Homo sapiens, UniProt P33261)
Sequence (P33261 whole entry): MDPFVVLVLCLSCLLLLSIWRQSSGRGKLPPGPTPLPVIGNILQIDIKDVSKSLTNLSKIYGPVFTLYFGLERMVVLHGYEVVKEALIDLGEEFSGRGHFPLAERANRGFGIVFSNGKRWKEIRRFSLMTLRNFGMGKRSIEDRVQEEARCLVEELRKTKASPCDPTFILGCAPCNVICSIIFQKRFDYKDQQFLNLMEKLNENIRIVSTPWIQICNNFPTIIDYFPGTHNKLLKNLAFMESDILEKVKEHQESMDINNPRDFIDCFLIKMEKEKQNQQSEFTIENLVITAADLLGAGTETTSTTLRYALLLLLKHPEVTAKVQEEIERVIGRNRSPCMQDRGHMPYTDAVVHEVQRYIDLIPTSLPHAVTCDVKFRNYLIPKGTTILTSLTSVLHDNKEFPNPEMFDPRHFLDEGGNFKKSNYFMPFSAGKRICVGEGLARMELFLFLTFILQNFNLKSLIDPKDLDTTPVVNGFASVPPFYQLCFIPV
Measurement kind: IC50

* C[C@@H](CN1CCCc2ccccc2C1)NC(=O)/C=N/O | > 10 µM

----------
Assay: in vivo
Settings: male, guinea pig
Measurement kind: Cmax

- C[C@@H](CN1CCCc2ccccc2C1)NC(=O)/C=N/O: 1420 to 10000 ng/g

----------
Test: in vivo
Conditions: male, guinea pig, iv, 20 mg/kg, total clearance from plasma (CL)
Measurement kind: clearance

- C[C@@H](CN1CCCc2ccccc2C1)NC(=O)/C=N/O: 2.27 to 5.19 mL/min/kg
